target: p-EGFR Del19/C797S (H1975-clone #23 cells) (Homo sapiens, UniProt P00533); experiment: Cell p-EGFR inhibition assay, HTRF, H1975-clone#23 (DEL19/C797S) cells; assay type: cell-based; settings: 16 h treatment, maximum percentage of pEGFR inhibition

compound: COCCn1nc(C)c2c1OC[C@H]1CC[C@H](C1)CN1/C(=N/C(=O)c3cc(C)nc-2c3)Nc2ccc(N3CCN(C4CCN(c5cc(F)c([C@H]6CCC(=O)NC6=O)c(F)c5)CC4)[C@@H](COC)C3)cc21 [Example 160]
Imax (%): 95.87
--
compound: COC[C@H]1CN(c2ccc3c(c2)N2C[C@@H]4CC[C@H](COc5c(c(C)nn5CCO)-c5cc(cc(C)n5)C(=O)/N=C/2N3)C4)CCN1C1CCN(c2cc(F)c([C@H]3CCC(=O)NC3=O)c(F)c2)CC1 [Example 156]
Imax (%): 100.92
